TGI reference
Tested on: CAKI-1 renal
Test: NCI tumour cell line growth inhibition, 48 h
Endpoint Name: TGI

>>> reading("Cc1cc2c(cc1C)C(=O)C1(C2)Cc2c(ccc(C)c2C)C1=O (centres undefined)")
"> 100 µM"
>>> reading("CCC[CH2][Sn]([CH2]CCC)([O]C(=O)c1cc(OC)c(OC)cc1OC)[O]C(=O)c1cc(OC)c(OC)cc1OC")
"1.63 µM"
>>> reading("O=C(O)Cc1cccc2c1OC(c1ccccc1)C(C(=O)c1ccccc1)C2=O (centres undefined)")
"> 100 µM"
>>> reading("O=C(Nc1nnc(-c2c(Cl)c(Cl)c(Cl)c(Cl)c2-c2nc3cc(C(=O)c4ccccc4)ccc3[nH]2)o1)c1ccccc1")
"> 100 µM"

Values from PubChem BioAssay (NCI)
